- Tested on: OVCAR-5
- TEST_DESCRIPTION: NCI tumour cell line growth inhibition, 48 h
Calls of active or inactive are those of the source. Cut-off read from the data, not from the text of the source: active = GI50 up to about 1.1 µM and inactive = higher.
# reported GI50; entries follow

COMPOUND	GI50
CCN(CC)CCNc1ccc2nnn3c4ccc(OC)cc4c(=O)c1c23	11 µM (inactive)
CC1(C)C(=O)N(c2ccccc2)C(=O)N1c1nc2ccccc2[nH]1	> 100 µM (inactive)
CC1=CC(O)(c2ccc(-c3ccccc3Cl)cc2)OC1=O (stereo not given)	> 100 µM (inactive)
CC(=O)c1[nH]c(NC(C)C)c(C(=S)Nc2ccccc2)c1N	61.8 µM (inactive)

Could you now look at the following compound, please?
Problem: Report GI50, nothing else, for this compound: `[N-]=[N+]=CC(=O)COC(=O)c1ccccc1`
Solution: > 100 µM (inactive)

====

- System: HOP-92
- TEST_DESCRIPTION: NCI tumour cell line growth inhibition, 48 h
Calls of active or inactive are those of the source. Rule as the data show it: active = GI50 up to about 1.1 µM and inactive = higher.
Hi there, use one of these labels in your reply, thanks! T = active, F = inactive

COMPOUND	SYSTEM	LABEL_CLASS
COc1ccccc1NC(=S)N/N=C(/c1ccccc1)c1ccccn1	HOP-92	T
CS(=N)(=O)CCC(N)P(=O)(O)O (stereo unspecified)	HOP-92	F
CCCCN(Cc1ccccc1)/C(=N/C#N)N(Cc1ccccc1)Cc1ccccc1	HOP-92	F
CCOC(=O)c1cc(-c2ccc(OC)cc2)c([N+](=O)[O-])[nH]1	HOP-92	F
CN(C)c1ccc(/C=C(\NC(=O)c2ccccc2)C2=NC(CCC(=O)O)C(=O)O2)cc1 (stereo unspecified)	HOP-92	F
Nc1ncnc2c1ncn2C1CCC(COS(N)(=O)=O)C1 (stereo unspecified)	HOP-92	F

Problem: Which outcome did this test record for the compound `C#CN1C(=O)c2c(c(-c3ccccc3)c(-c3ccc(Oc4ccc(-c5c(-c6ccccc6)c6c(c(-c7ccccc7)c5-c5ccccc5)C(=O)N(C#C)C6=O)cc4)cc3)c(-c3ccccc3)c2-c2ccccc2)C1=O` ?
Solution: F

Problem: Outcome logged for `CCOC(=O)C1(C(=O)OCC)OC(=O)NC2=C1CCCC2` in this assay:
Solution: F

Problem: Recorded test call requested for C=C1C[C@]23CC[C@@H]4C(CO)(CO)CC(=O)C[C@]4(C)[C@@H]2C(O)C[C@H]1C3 (stereo partly specified)
Solution: F

Problem: Test call for this compound, please: `CC1=NN(C(=O)c2ccc(Cl)cc2)C(=O)/C1=C/c1c(O)cc(O)c2ccccc12`
Solution: F

====

- Tested on: SF-295
- TEST_DESCRIPTION: NCI tumour cell line growth inhibition, 48 h
The source made the active and inactive calls. Cut-off read from the data, not from the text of the source: active = GI50 up to about 1.1 µM and inactive = higher.
Could you please pick one outcome from this set? class 1 for active, class 0 for inactive

Problem: Write down the call the test reported for this compound. Item: `CN(CCCNC(=O)c1cn(C)c2c1ccc1ccccc12)CCCNC(=O)c1cn(C)c2c1ccc1ccccc12`
Solution: class 0

Problem: Please let me know the test result on file for CCCCCCCCC/C=C1\CC(CO)(COC(=O)C2CCCCC2)OC1=O (centres undefined) .
Solution: class 0

Problem: Field: outcome | Entry: `Nc1ccccc1OCc1cc(=O)c(OCc2ccccc2)co1`
Solution: class 0

====

- Test system: NCI-H522
- TEST_DESCRIPTION: NCI tumour cell line growth inhibition, 48 h
Calls of active or inactive are those of the source. Cut-off read from the data, not from the text of the source: active = GI50 up to about 1.1 µM and inactive = higher.
Response enum: active, inactive

Below are worked cases with known answers.
COMPOUND	LABEL_CLASS
CC(=O)CC(=O)CCC(=O)Nc1cccc(C(F)(F)F)c1	inactive
COc1ccc(CNNC(=O)c2cc[n+]([BH2-]C#N)cc2)cc1OC	inactive
CC(C)(O)[C@@H]1CCC(C)([C@H]2[C@@H](O)CC3(C)C4CC(OC5OC(CO)C(O)C(O)C5O)C5C(C)(C)[C@@H](OC6OCC(O)C(O)C6O)CC[C@@]56C[C@@]46CC[C@]23C)O1 (stereo partly drawn)	inactive
O=C1O[C@@H](c2ccccc2)C[C@H]1CN1CCOCC1	inactive

Problem: Just curious, what result did `CC(=O)Nc1ccccc1Sc1ccccc1` get here?
Solution: inactive

====

- Test system: SK-MEL-5
- TEST_DESCRIPTION: NCI tumour cell line growth inhibition, 48 h
Calls of active or inactive are those of the source. Rule as the data show it: active = GI50 up to about 1.1 µM and inactive = higher.
Could you please pick one outcome from this set? active, inactive

CC(=O)Nc1ccccc1Sc1ccccc1 inactive
CCC/C(=N\NC(=S)N1CCN(c2ccccn2)CC1)c1ccccn1 active
O=C1c2ccccc2C(=O)N1C/C=N/NS(=O)(=O)c1cccc([N+](=O)[O-])c1 inactive

Problem: For `COc1ccc(-n2c(=O)[nH]n(C(C)=O)c2=O)cc1` , which call appears in the assay record?
Solution: inactive

====

- System: OVCAR-5
- TEST_DESCRIPTION: NCI tumour cell line growth inhibition, 48 h
Active and inactive are the calls of the source. Cut-off read from the data, not from the text of the source: active = GI50 up to about 1.1 µM and inactive = higher.
ASSAY_METRIC: GI50

MOLECULE	RESULT
COc1cc(/C=C/C(=O)OC2C(O)C3CC(OC(=O)c4cc(OC)c(OC)c(OC)c4)CC2N3C)cc(OC)c1OC (stereo not given)	> 50 µM (inactive)
Fc1cc(-c2cc(-c3ccc4c(c3)OCO4)n[nH]2)c(Cl)cc1Cl	3.28 µM (inactive)
O=Cc1ccc2c(c1-c1c(C=O)ccc3c1OCO3)OCO2	> 100 µM (inactive)
O=C(/C=C/c1ccc(O)c(O)c1)OCc1ccccc1 [BENZYL CAFFEATE]	29.5 µM (inactive)
Nc1nc2ncc(SCc3ccc(C(=O)NC(CCC(=O)O)C(=O)O)cc3)cc2c(=O)[nH]1 (stereo not given)	> 100 µM (inactive)
O=C(NCCC1CN(C(=O)OCc2ccccc2)c2ccccc21)OCc1ccccc1 (stereo not given)	> 100 µM (inactive)
O=C1C2C(C(=O)N1O)N(Cc1ccccc1)C(=O)N2Cc1ccccc1 (stereo not given)	> 100 µM (inactive)
COC1=CC(=O)c2c(cc(COP(N)(=O)N(CCBr)CCBr)n2C)C1=O (stereo not given)	0.104 µM (active)

Problem: Note down GI50 recorded for C=CCOC(=O)C1C2OC3(C(C(=O)OC)=C2C(=O)OC)c2ccccc2CCC13 (stereo not given)
Solution: > 10 µM (inactive)

Problem: Annotate the molecule `N#C/C(=C/c1cccc2ccccc12)C(=O)c1ccccc1` with its measured GI50.
Solution: 23.6 µM (inactive)

====

- Test system: NCI/ADR-RES
- TEST_DESCRIPTION: NCI tumour cell line growth inhibition, 48 h
The source made the active and inactive calls. No stated cut-off is given here; in the data, active = GI50 up to about 1.1 µM and inactive = higher.
Entries and their GI50

COMPOUND	SYSTEM	RESULT
c1ccc2c(c1)nnn2C1CCCCO1 (stereo not given)	NCI/ADR-RES	> 100 µM (inactive)
c1ccc([I+]c2ccccc2)cc1	NCI/ADR-RES	> 100 µM (inactive)
C1CN1c1nc(N2CC2)nc(N2CC2)n1	NCI/ADR-RES	5.42 µM (inactive)
CCN(CC)CCCNc1nc(=O)[nH]c(C)c1C(=O)Nc1c2ccccc2nc2ccccc12	NCI/ADR-RES	12.9 µM (inactive)
O=C(c1cccs1)N1CCCN(C(=O)c2cccs2)C1=S	NCI/ADR-RES	> 100 µM (inactive)

Problem: Please report GI50 for the following compound: `CO/N=C(\C)c1ccc(Nc2nc3ccccc3c3occc23)cc1`
Solution: 15.6 µM (inactive)

Problem: Please supply the value of reported GI50 for the item `COC1=CC(=O)C2=C(C1=O)[C@H]1CC[C@]3(C)[C@@H](OC(C)=O)CC[C@H]3[C@@H]1CC2`
Solution: 32.7 µM (inactive)

====

- Test system: U-251
- TEST_DESCRIPTION: NCI tumour cell line growth inhibition, 48 h
Calls of active or inactive are those of the source. Rule as the data show it: active = GI50 up to about 1.1 µM and inactive = higher.
One label from this list, please: active, inactive

MOLECULE	LABEL_CLASS
C[N+]1(C)CCC(C#N)(c2ccccc2)CC1	inactive
O=C(Nc1nc2ccccc2n1Cc1ccccc1)NC12CC3CC(CC(C3)C1)C2	inactive
O=[N+]([O-])c1nccn1CC(O)c1ccc(F)cc1 (stereo not given)	inactive

Problem: Fill in: this test's call for CC1(Br)CC2OC3(Br)C=CC(C)(O)C2(CC1=O)C3(C)C (stereo not given) is ___
Solution: inactive

Problem: Check the results log: what was the call for `COCOc1cc(OCOC)cc(C(=O)Oc2ccccc2)c1` ?
Solution: inactive

Problem: Hi team, can someone confirm the assay call for `O=S(=O)(O)c1ccc(/N=N\c2c(O)ccc3cc(Br)ccc23)cc1` ?
Solution: inactive

Problem: Which outcome was entered for the molecule `Nn1c(SCC(=O)O)nc2ccccc2c1=O` in this test?
Solution: inactive

Problem: Which result was noted for this molecule in the test: `CN(C)c1ccc(/C=N/c2ccc(-c3nc4ccccc4o3)cc2)cc1`
Solution: inactive

====

Recorded GI50 by entry
- Test system: ACHN
- TEST_DESCRIPTION: NCI tumour cell line growth inhibition, 48 h
The source made the active and inactive calls. No stated cut-off is given here; in the data, active = GI50 up to about 1.1 µM and inactive = higher.

Worked set:
MOLECULE	GI50
CN(C)c1ccc2nc3c(ccc4ccccc43)[o+]c2c1	13.8 µM (inactive)
COC(=O)[C@H]1C=C[C@@H](C)n2c(=O)c3ccccc3c(=O)n21	> 100 µM (inactive)
Cc1ccc([S+]([O-])c2cccs2)cc1 (centres undefined)	> 100 µM (inactive)
Cn1c(=O)c(C(=O)NC(=O)NCCCCCOC(=O)CCCCCCCCCCC(=O)OCCCCCNC(=O)NC(=O)c2cn(Cc3ccccc3)c(=O)n(C)c2=O)cn(Cc2ccccc2)c1=O	> 100 µM (inactive)
COc1ccc2nc3cc([N+](=O)[O-])ccc3c(Nc3ccc(S(=O)(=O)NC(C)=O)cc3)c2c1	88.1 µM (inactive)

Problem: Supply recorded GI50 for c1ccc(SC23C4C5C6C4C2C6C53)nc1 (centres undefined) here.
Solution: > 100 µM (inactive)
